# TARGET UNDER TEST: HIV-1 APV-6 envelope protein (Env) on pseudovirus (HIV-1 isolate APV-6)
# PROCEDURE DETAILS: cell-based or functional assay
MEASURED ATTRIBUTE: IC50 (µg/mL), pseudovirus neutralization
Unit µg/mL implied. Number only.

1443_C16 (PG16) (TCN-116) (antibody, V domains shown) VH: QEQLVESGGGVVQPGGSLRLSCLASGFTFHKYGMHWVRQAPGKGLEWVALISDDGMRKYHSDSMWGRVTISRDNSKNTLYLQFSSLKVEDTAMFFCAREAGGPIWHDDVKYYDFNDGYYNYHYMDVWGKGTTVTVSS VL: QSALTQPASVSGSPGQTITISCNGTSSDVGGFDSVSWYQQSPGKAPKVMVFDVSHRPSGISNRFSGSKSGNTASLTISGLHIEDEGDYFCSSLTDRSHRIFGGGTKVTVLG
0.08

API: the following record is the query input.
Q: Fill in the blank: the reported IC50 (µg/mL), pseudovirus neutralization of 1495_C14 (PGC14) (antibody, human IgG1, lambda, V domains shown) VH: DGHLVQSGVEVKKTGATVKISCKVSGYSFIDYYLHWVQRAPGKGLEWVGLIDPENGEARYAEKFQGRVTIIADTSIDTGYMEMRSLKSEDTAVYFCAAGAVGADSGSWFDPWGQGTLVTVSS VL: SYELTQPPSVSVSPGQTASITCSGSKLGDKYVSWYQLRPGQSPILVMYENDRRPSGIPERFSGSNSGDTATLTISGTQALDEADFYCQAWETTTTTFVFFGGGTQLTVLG is ____.
Ans: 7.41
